Measured inhibition at 10 µg/mL values are reported for all entries that follow.
# STUDY_TARGET: porcine pancreatic PLA2 (Sus scrofa)
# Construct: purchased Sigma
# ASSAY_OVERVIEW: MHPLA2 assay: in vitro porcine pancreatic phospholipase A2, mixed micelle design, [s]=10 μm
# Type: biochemical
# MEASUREMENT_CONDITIONS: dose 10 μ/ml, subs. con. 10, read-out: % Inh.
# Procedure: Phospholipase A2 activity was measured by a radiochemical assay in which labeled synthetic phosphatidylcholine substrate is converted by porcine pancreatic PLA2 to free radiolabeled arachidonate and lyso PC. […] Radioactivity (cpm) in samples is quantitated by liquid scintillation counting. […] Labeled arachidonate extracted with CHCl3 /MeOH is separated on silica gel G TLC plates (Analtech). […] A 20 μL sample is counted in 10 ml of Beckman Redi-solv HP and spotted on silica gel G plates. […]
OBSERVED_PROPERTY: inhibition at 10 µg/mL (%)

>>> df
                                   molecule  data_value
0  CCCCCCCCCCCCCCCCOCC(COP(=O)([O-])OCC[N+](C)(C)C)OC(=O)CBr (stereo not shown)          35
1  CCCCCCCCCCCCCCCCOCC(COP(=O)([O-])OCC[N+](C)(C)C)CP(=O)(OCC)OCC (stereo not shown)          18
2  CCCCCCCCCCCCCCCCOCC(CC=NO)COP(=O)([O-])OCC[N+](C)(C)C (stereo not shown)           0
3  CCCCCCCCCCCCCCCCS(=O)(=O)CCCOP(=O)([O-])OCC[N+](C)(C)C           0
4  CCCCCCCCCCCCCCCCOCC(COP(=O)([O-])OCC[N+](C)(C)C)OC(=O)CCl (stereo not shown)          27
5  CCCCCCCCCCCCCCCCOCC(COP(=O)([O-])OCC[N+](C)(C)C)OP(=O)(OC)OCCCCCCCCCCCCCCCC (stereo not shown)           0
6  CCCCCCCCCCCCCCCCOCC(COP(=O)([O-])OCC[N+](C)(C)C)CC(=O)C(F)(F)CCCCCCCCCCCCCCCC (stereo not shown)           0
7  CCCCCCCCCCCCCCCCOCC(COP(=O)([O-])OCC[N+](C)(C)C)C[S+]([O-])CCCCCCCCCCCCCCCC (stereo not shown)           3
8  CCCCCCCCCCCCCCCCOCC(COP(=O)([O-])OCC[N+](C)(C)C)OCC(=O)O (stereo not shown)           6
9  CCCCCCCCCCCCCCCCOCC(COP(=O)([O-])OCC[N+](C)(C)C)OP(=O)(OC)OCCCCC (single isomer, unassigned)           0

###

# STUDY_TARGET: porcine pancreatic PLA2 (Sus scrofa, UniProt P00592)
# Construct: purchased Sigma
# Sequence (P00592 23-146): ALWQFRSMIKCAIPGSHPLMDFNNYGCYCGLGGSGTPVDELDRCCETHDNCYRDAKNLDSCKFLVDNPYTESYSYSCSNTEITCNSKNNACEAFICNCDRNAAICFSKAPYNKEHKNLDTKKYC
# ASSAY_OVERVIEW: MHPLA2 assay: in vitro porcine pancreatic phospholipase A2, mixed micelle design, [s]=10 μm
# Format: biochemical
# MEASUREMENT_CONDITIONS: dose 10 μ/ml, subs. con. 10
# Protocol: Phospholipase A2 activity was measured by a radiochemical assay in which labeled synthetic phosphatidylcholine substrate is converted by porcine pancreatic PLA2 to free radiolabeled arachidonate and lyso PC. […] Radioactivity (cpm) in samples is quantitated by liquid scintillation counting. […] Labeled arachidonate extracted with CHCl3 /MeOH is separated on silica gel G TLC plates (Analtech). […] A 20 μL sample is counted in 10 ml of Beckman Redi-solv HP and spotted on silica gel G plates. […]
OBSERVED_PROPERTY: % Inh.

>>> print(df.to_string())
                                   compound  observed_property  data_value
0  CCCCCCCCCCCCCCCCOCC(COP(=O)([O-])OCC[N+](C)(C)C)CSCCCCCCCCCCCCCCCC (stereo not drawn)             % Inh.        STIM
1  CCCCCCCCCCCCCCCCOCC(COP(=O)([O-])OCC[N+](C)(C)C)CC(N)CCCCCCCCCCCCCCCC (stereo not drawn)             % Inh.         59%
2  CCCCCCCCCCCCCCCCOC[C@@H](COP(=O)([O-])OCC[N+](C)(C)C)OP(=O)(O)OCCCCCCCCCCCCCCCC             % Inh.        STIM
3  CCCCCCCCCCCCCCCCOCC(COP(=O)([O-])OCC[N+](C)(C)C)OP(=O)(O)OCCCCC (single isomer, unassigned; less polar)             % Inh.        STIM
4  CCCCCCCCCCCCCCCC[C@]1(COP(=O)([O-])OCC[N+](C)(C)C)CC(=O)N1             % Inh.        STIM
5  CCCCCCCCCCCCCCCCOCC(COP(=O)([O-])OCC[N+](C)(C)C)OP(=O)(O)OCCCCCCCCCCCCCCCC (stereo not drawn)             % Inh.        STIM
